method_description: self-splicing fitness, log relative to wild type (ln ratio); higher = more splicing; Tetrahymena group I intron in knt gene, E. coli kanamycin selection, DiMSum; sequences stand for … in CUCUCU…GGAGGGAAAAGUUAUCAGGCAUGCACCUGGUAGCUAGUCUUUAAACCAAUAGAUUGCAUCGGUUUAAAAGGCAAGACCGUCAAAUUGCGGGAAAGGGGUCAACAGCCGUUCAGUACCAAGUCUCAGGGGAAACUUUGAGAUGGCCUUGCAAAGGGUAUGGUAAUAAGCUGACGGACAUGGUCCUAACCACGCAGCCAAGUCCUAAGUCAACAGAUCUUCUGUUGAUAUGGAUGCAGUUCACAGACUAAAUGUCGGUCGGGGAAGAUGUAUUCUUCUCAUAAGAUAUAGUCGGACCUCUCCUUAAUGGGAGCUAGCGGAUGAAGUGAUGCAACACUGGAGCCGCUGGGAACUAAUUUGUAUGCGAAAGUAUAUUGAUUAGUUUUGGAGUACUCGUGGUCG;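 further: selection with 25 µg/mL kanamycin versus none on LB agar overnight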
applied_conditions: 37 °C
# Lookup of reported self-splicing fitness (ln) keyed by entry
Enter the number alone.

The cases that follow already have their self-splicing fitness (ln) on record.
CAGGAGCAAUAUUACGCGUA | -2.03
CACAAGCAAUAUUACGGUAC | -2.03

# input sequence: GUGCAGCAAUAUUACGCGCC ; wanted: its self-splicing fitness (ln)
-1.95

====

# Lookup of reported self-splicing fitness (ln) keyed by entry
method_description: self-splicing fitness, log relative to wild type (ln ratio); higher = more splicing; Tetrahymena group I intron in knt gene, E. coli kanamycin selection, DiMSum; sequences stand for … in CUCUCU…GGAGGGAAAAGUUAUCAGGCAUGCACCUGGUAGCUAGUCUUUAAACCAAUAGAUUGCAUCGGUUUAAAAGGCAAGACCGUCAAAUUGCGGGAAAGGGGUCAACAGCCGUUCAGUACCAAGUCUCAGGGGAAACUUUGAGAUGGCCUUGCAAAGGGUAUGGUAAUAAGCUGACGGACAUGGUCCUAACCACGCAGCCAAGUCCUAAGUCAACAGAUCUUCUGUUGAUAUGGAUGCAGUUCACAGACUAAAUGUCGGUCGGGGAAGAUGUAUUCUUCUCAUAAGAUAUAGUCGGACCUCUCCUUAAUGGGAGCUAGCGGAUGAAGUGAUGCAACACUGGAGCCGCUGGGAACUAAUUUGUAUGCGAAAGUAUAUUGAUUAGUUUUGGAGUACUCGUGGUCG
applied_conditions: 37 °C
Enter the number alone.

AAGCAGCAAUAUUACGAGCU | -0.815

# input sequence: CUGAAGCAAUAUUACGUGUG ; wanted: its self-splicing fitness (ln)
-0.0989

# input sequence: GGACAGCAAUAUUACGCCGU ; wanted: its self-splicing fitness (ln)
-3.05

# input sequence: UUUUAGCAAUAUUACGCCAA ; wanted: its self-splicing fitness (ln)
0.0505

# input sequence: CCUGAGCAAUAUUACGAAUC ; wanted: its self-splicing fitness (ln)
-2.34

# input sequence: ACAUAGCAAUAUUACGUGUU ; wanted: its self-splicing fitness (ln)
-2.87

# input sequence: UUACAGCAAUAUUACGGCUC ; wanted: its self-splicing fitness (ln)
-0.974

# input sequence: UGCCAGCAAUAUUACGAUAG ; wanted: its self-splicing fitness (ln)
-1.09

# input sequence: AGUAAGCAAUAUUACGGGGA ; wanted: its self-splicing fitness (ln)
-2.3

====

method_description: self-splicing fitness, log relative to wild type (ln ratio); higher = more splicing; Tetrahymena group I intron in knt gene, E. coli kanamycin selection, DiMSum; sequences stand for … in CUCUCU…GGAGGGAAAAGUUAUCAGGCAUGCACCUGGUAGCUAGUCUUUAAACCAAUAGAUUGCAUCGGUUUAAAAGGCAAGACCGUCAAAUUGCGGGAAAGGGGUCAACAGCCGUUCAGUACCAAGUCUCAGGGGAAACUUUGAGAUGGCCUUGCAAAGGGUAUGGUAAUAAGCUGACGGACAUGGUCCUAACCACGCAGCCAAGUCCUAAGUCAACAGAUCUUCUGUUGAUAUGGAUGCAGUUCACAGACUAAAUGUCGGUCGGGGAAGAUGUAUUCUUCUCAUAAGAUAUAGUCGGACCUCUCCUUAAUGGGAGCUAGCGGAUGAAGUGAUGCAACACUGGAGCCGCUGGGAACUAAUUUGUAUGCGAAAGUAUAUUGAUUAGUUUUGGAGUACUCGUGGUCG
applied_conditions: 30 °C
Mark 1.0 for reported self-splicing fitness (ln) of -0.4 or greater; mark 0.0 for anything smaller.

Here's what some known entries look like.
CCUGAGCAAUAUUACGUCUG | 0.0
GGUAAGCAAUAUUACGGCAU | 1.0
AGGAAGCAAUAUUACGAGUU | 0.0

Now look at this one.
Form field: self-splicing fitness (ln) at least -0.4? Entry: GUAUAGCAAUAUUACGCCUA
0.0

====

method_description: self-splicing fitness, log relative to wild type (ln ratio); higher = more splicing; Tetrahymena group I intron in knt gene, E. coli kanamycin selection, DiMSum; sequences stand for … in CUCUCU…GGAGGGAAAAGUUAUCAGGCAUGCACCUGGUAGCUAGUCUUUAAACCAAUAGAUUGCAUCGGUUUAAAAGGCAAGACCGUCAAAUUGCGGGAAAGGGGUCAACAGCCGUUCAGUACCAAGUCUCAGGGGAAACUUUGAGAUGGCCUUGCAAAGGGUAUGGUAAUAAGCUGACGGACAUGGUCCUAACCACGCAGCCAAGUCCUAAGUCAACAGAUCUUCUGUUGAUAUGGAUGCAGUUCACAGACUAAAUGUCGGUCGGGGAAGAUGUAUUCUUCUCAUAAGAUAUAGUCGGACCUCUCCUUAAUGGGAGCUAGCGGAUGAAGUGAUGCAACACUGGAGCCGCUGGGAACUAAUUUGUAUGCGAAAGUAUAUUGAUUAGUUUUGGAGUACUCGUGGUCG
applied_conditions: 30 °C
Mark Criterion met for reported self-splicing fitness (ln) of -2 or greater; mark Criterion not met for anything smaller.

Here's what some known entries look like.
CUACAGCAAUAUUACGACGG | Criterion met
CGUGAGCAAUAUUACGGUGA | Criterion not met
UCUGAGCAAUAUUACGUCGU | Criterion not met
CAUGAGCAAUAUUACGCGGC | Criterion not met

Form field: self-splicing fitness (ln) at least -2? Entry: UACUAGCAAUAUUACGGCGU
Criterion not met

Form field: self-splicing fitness (ln) at least -2? Entry: AGACAGCAAUAUUACGCGUG
Criterion met

Form field: self-splicing fitness (ln) at least -2? Entry: CUGAAGCAAUAUUACGAACU
Criterion not met

====

method_description: self-splicing fitness, log relative to wild type (ln ratio); higher = more splicing; Tetrahymena group I intron in knt gene, E. coli kanamycin selection, DiMSum; sequences stand for … in CUCUCU…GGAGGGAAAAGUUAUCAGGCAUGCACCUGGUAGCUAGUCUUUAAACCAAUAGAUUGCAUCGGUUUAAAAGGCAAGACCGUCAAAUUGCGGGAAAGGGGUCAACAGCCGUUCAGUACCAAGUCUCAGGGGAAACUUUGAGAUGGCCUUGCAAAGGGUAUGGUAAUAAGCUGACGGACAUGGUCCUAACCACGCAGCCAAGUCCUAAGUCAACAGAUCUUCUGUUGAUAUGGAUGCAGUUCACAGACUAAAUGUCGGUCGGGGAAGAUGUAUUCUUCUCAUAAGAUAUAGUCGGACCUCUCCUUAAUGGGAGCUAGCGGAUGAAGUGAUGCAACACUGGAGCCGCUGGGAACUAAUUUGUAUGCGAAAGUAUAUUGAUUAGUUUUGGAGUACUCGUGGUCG
applied_conditions: 30 °C
Mark Met for reported self-splicing fitness (ln) of -0.8 or greater; mark Not met for anything smaller.

Here's what some known entries look like.
GAUGAGCAAUAUUACGCGAA | Not met
GCCUAGCAAUAUUACGCCCC | Met

Form field: self-splicing fitness (ln) at least -0.8? Entry: GACCAGCAAUAUUACGUCAG
Not met

Form field: self-splicing fitness (ln) at least -0.8? Entry: CCCCAGCAAUAUUACGAUUG
Not met

Form field: self-splicing fitness (ln) at least -0.8? Entry: UCAGAGCAAUAUUACGCGAA
Not met

Form field: self-splicing fitness (ln) at least -0.8? Entry: CUCGAGCAAUAUUACGGGGA
Not met

====

# Lookup of reported self-splicing fitness (ln) keyed by entry
method_description: self-splicing fitness, log relative to wild type (ln ratio); higher = more splicing; Tetrahymena group I intron in knt gene, E. coli kanamycin selection, DiMSum; sequences stand for … in CUCUCU…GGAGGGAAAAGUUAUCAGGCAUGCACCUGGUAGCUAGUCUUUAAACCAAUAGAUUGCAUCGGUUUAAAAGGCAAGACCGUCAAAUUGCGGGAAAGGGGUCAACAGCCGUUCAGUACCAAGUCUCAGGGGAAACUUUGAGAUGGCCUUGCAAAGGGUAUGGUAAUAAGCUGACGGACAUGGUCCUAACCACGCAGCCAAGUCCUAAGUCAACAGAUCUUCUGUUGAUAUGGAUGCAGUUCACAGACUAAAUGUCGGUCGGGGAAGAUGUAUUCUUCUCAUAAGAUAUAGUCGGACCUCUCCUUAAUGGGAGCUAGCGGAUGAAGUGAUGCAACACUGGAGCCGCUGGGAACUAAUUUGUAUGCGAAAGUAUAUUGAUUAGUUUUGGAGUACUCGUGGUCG
applied_conditions: 30 °C
Enter the number alone.

The cases that follow already have their self-splicing fitness (ln) on record.
UCCAAGCAAUAUUACGCGUC | -3.21
UUAGAGCAAUAUUACGGCCC | -3.84
ACUGAGCAAUAUUACGAGUU | -2.88
AAAGAGCAAUAUUACGGACA | -2.68
CGAAAGCAAUAUUACGCUUA | -2.25
ACCAAGCAAUAUUACGUUCG | -1.88

# input sequence: AACCAGCAAUAUUACGGUGA ; wanted: its self-splicing fitness (ln)
-1.19

# input sequence: GUUAAGCAAUAUUACGGCAU ; wanted: its self-splicing fitness (ln)
-0.746

# input sequence: CCGGAGCAAUAUUACGUACU ; wanted: its self-splicing fitness (ln)
-4.13

# input sequence: GAUAAGCAAUAUUACGCCCG ; wanted: its self-splicing fitness (ln)
-2.05

# input sequence: UCCGAGCAAUAUUACGGAAG ; wanted: its self-splicing fitness (ln)
-3.67

Ref: the supplement of paper PMC7877785
